# test-target: T1, ZFP SBS#405 (synthetic)
# T1 chain: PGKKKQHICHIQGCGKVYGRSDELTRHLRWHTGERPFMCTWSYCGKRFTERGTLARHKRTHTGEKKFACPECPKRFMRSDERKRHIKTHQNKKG
# assay-comment: EMSA
# settings: tags: MBP fusion
readout: Kd (nM)
Reply with just the number (in nM).

[Q] Fill in Kd for record GCGGCCGCA (dsDNA) DNA 1: GCGGCCGCA DNA 2: TGCGGCCGC
[A] 110
